Experiment: Solubility pH 7
Assay type: physicochemical
Details: pH 7, aqueous buffer
measured_parameter: solubility (µg/mL)

(a) COc1ccc(C[C@H](NC(=O)[C@@H](C)NC(=O)c2ccc3cn[nH]c3c2)C(=O)N[C@@H](CC2CCCC2)C(=O)[C@@]2(C)CO2)cc1 [Compound C-2063]
(b) COc1ccc(C[C@H](NC(=O)[C@H](C)NC(=O)Cc2cnc(N(C)C)s2)C(=O)N[C@@H](CC2=CCCC2)C(=O)[C@@]2(C)CO2)cc1 [Compound C-2067]
Please compare: a and b . Report which one has the smaller solubility value. Bench note: the answer is the label of the chosen record. a

---

Molecular target: c20S (constitutive 20S proteasome) (Homo sapiens, UniProt P20618+P28074)
Assay: 20S proteasome assay, chymotrypsin-like activity (LLVY), c20S
Format: biochemical
Details: LLVY c20S Hu 1 h CONT: IC50 (nM), succinyl-Leu-Leu-Val-Tyr-AMC
measured_parameter: IC50 (nM)

> print(dat)
                               entry.smiles  measured.parameter  unit.name  recorded.number
1  COc1ccc(C[C@H](NC(=O)[C@@H](C)NC(=O)c2nc3ccccc3[nH]2)C(=O)N[C@@H](CC2CCCC2)C(=O)[C@@]2(C)CO2)cc1                IC50         nM             3400

(a) COc1ccc(C[C@H](NC(=O)[C@H](C)NC(=O)CO)C(=O)N[C@@H](Cc2ccccc2)C(=O)[C@@]2(C)CO2)cc1
(b) COc1ccc(C[C@H](NC(=O)[C@@H](C)NC(=O)CC(C)(C)O)C(=O)N[C@@H](CC2CCCC2)C(=O)[C@@]2(C)CO2)cc1
Higher IC50 between a and b ? Bench note: the answer is the label of the chosen record. a

(a) CC[C@](C)(O)CC(=O)N[C@H](C)C(=O)N[C@@H](Cc1ccc(OC)cc1)C(=O)N[C@@H](CC1CCCC1)C(=O)[C@@]1(C)CO1
(b) COc1ccc(C[C@H](NC(=O)[C@@H](C)NC(=O)c2ncc[nH]2)C(=O)N[C@@H](CC2CCCC2)C(=O)[C@@]2(C)CO2)cc1
Higher IC50 between a and b ? Bench note: the answer is the label of the chosen record. b
(b: 64400 nM, a: 459 nM)

Data origin, for the record: patent US9657057B2
